# Test system: HeLa
# ASSAY COMMENT: Cytotoxicity against human HeLa cells after 3 days by MTT assay
# Type: cell-based
# APPLIED CONDITIONS: 72 h
METRIC: IC50 (µM)

INSERT INTO assay_data (smiles_data, units, result_number) VALUES
  ('C1=C2CN3CCCC/C=C\CC[C@@H]4CN(CCCC/C=C\CC[C@H]1C3)CC[C@@H]24', 'µM', 12);

====

# TARGET DESC: Proteasome subunit beta type-8 (Homo sapiens, UniProt P28062)
# Sequence (P28062 whole entry): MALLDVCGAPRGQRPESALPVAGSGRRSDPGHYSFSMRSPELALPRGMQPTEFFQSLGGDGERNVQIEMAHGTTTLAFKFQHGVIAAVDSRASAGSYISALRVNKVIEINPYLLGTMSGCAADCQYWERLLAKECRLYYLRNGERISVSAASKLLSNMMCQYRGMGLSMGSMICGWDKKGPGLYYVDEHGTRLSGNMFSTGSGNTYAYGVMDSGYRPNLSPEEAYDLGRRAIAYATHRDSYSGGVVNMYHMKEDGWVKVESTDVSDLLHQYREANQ
# ASSAY COMMENT: Inhibition of 20s immunoproteasome LMP7 in human erythrocytes using Suc-Leu-Leu-ValTyr-MCA as substrate preincubated for 10 mins followed by substrate addition and measured after 6 hrs by fluorescence assay
pIC50: −log10 of the molar value.
Quick list: pIC50 per entry.
METRIC: pIC50

INSERT INTO measurements (smiles_data, result_number) VALUES
  ('C1=C\CCc2cc3c[n+](c2)CCCC/C=C\CC[C@@H]2CN(CCCC/1)CC[C@@H]32', 5.39),
  ('C1=C2CN3CCCC/C=C\CC[C@@H]4CN(CCCC/C=C\CC[C@H]1C3)CC[C@@H]24', 6.20);

From: ChEMBL document CHEMBL4308881
